// reported % inhibition of gametocyte viability for each item listed
# Tested on: Plasmodium falciparum NF54 stage IV/V gametocytes
# measurement notes: % inhibition of gametocyte viability (ATP bioluminescence); higher = more inhibition
# cond: 1 µM; 24 h

{"compound": "Cc1nc(N(C)C(=O)Cc2ccc(-c3ccccn3)cc2)sc1S(N)(=O)=O", "% inhibition of gametocyte viability": "4.11%"}
{"compound": "CNCC(=O)OCc1cccnc1N(C)C(=O)OC(C)[n+]1cnn(C[C@](O)(c2cc(F)ccc2F)[C@@H](C)c2nc(-c3ccc(C#N)cc3)cs2)c1 (some centres undefined)", "% inhibition of gametocyte viability": "< 0%"}
{"compound": "O=C(NCc1ncc(C(F)(F)F)cc1Cl)c1c(Cl)cccc1Cl", "% inhibition of gametocyte viability": "< 0%"}
{"compound": "O=C(O)c1sccc1S(=O)(=O)n1ccc2cc(Br)ccc21", "% inhibition of gametocyte viability": "< 0%"}
{"compound": "CCNC(=O)Nc1cc(-c2ccccc2)c(-c2cncc(C(=O)O)c2)cn1", "% inhibition of gametocyte viability": "< 0%"}
{"compound": "CC(N)C12CC3CC(CC(C3)C1)C2 (centres undefined)", "% inhibition of gametocyte viability": "7.67%"}

Given the compound Cc1[nH]c2ccccc2c1CCNCc1ccc(/C=C/C(=O)NO)cc1 , what is its reported % inhibition of gametocyte viability?
< 0%

Given the compound CC(C)(C)NC(=O)N[C@H](C(=O)N1C[C@H]2[C@@H]([C@H]1C(=O)NC(CC1CCC1)C(=O)C(N)=O)C2(C)C)C(C)(C)C (some centres undefined) , what is its reported % inhibition of gametocyte viability?
< 0%

Given the compound Fc1ccc(-n2cc(Cn3c(-c4cccc(F)c4)nc4ccccc43)nn2)cc1 , what is its reported % inhibition of gametocyte viability?
< 0%

----------
# Test system: HepG2-A16-CD81;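 further: HepG2-A16-CD81 hepatoma cells plated as in the liver-stage assay but without sporozoites, with DMSO wells as negative and 25 µM puromycin as positive control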
# measurement notes: % inhibition of HepG2 viability (CellTiter-Glo); higher = more toxic
# cond: 5 µM
readout kind: % inhibition of HepG2 viability

The following compounds have reported results that may help.
{"compound": "COc1cc(NCc2ccc3nc(N)nc(N)c3c2C)cc(OC)c1OC", "observed value": "17.2%"}
{"compound": "Cc1cc(O)c2c(c1)C(=O)c1c(I)c(O)c(I)c(O)c1C2=O", "observed value": "4.29%"}
{"compound": "CCOC(=O)N[C@@H]1CC[C@@H]2[C@@H](C1)C[C@H]1C(=O)O[C@H](C)[C@H]1[C@H]2/C=C/c1ccc(-c2cccc(F)c2)cn1", "observed value": "7.92%"}
{"compound": "N#Cc1cc([N+](=O)[O-])ccc1Oc1ccccc1Cl", "observed value": "-4.08%"}
{"compound": "CC(C)(C)c1cc(C(=O)/C(C#N)=N/Nc2cccc(Cl)c2)no1", "observed value": "44.1%"}

With those in mind, consider the next compound.
Given the compound Clc1cc(Cl)c2c(c1)CCc1ccccc1C2n1ccnc1 (stereo not drawn) , what is its reported % inhibition of HepG2 viability?
26.4%

----------
# System: Plasmodium falciparum NF54 asexual blood stage
# measurement notes: % inhibition of asexual blood stage proliferation (pLDH); higher = more inhibition
# cond: 2 µM; 72 h
Please mark 1 if the recorded % inhibition of asexual blood stage proliferation is equal to or greater than 20%, and 0 if it falls below.

{"molecule": "Cc1ccc(N2CCC(CCOc3ccc(S(C)(=O)=O)cc3)CC2)nn1", "class label": 0}
{"molecule": "FC(F)(F)Oc1ccc(Nc2ccc3cccc(Cl)c3n2)cc1", "class label": 1}
{"molecule": "O=C(Cc1ccccc1F)Nc1nc2ccccc2[nH]1", "class label": 1}
{"molecule": "Cc1cc(C)n2nc(C(=O)NS(=O)(=O)c3c(C)cccc3OC(F)(F)F)nc2n1", "class label": 1}
{"molecule": "Cc1ncc([N+](=O)[O-])n1CC(O)CN1CCOCC1 (stereo unspecified)", "class label": 1}
{"molecule": "Cc1ncc([N+](=O)[O-])n1CC(C)O (stereo unspecified)", "class label": 1}
{"molecule": "C[C@H](Cn1cnc2c(N)ncnc21)OCP(=O)(O)O", "class label": 0}
{"molecule": "N#C/C(=C1/SC[C@H](c2ccc(Cl)cc2Cl)S1)n1ccnc1", "class label": 1}

Test whether the molecule O=c1cc(NCCCN[C@@H]2CCOc3c(Br)cc(Br)cc32)[nH]c2ccsc12 records % inhibition of asexual blood stage proliferation of 20% or higher.
1

Test whether the molecule CC1(C)CC(NC(=O)C(=O)Nc2ccc(Cl)cc2)CC(C)(C)N1 records % inhibition of asexual blood stage proliferation of 20% or higher.
0

Test whether the molecule O=C(CCc1ccc2c(c1)OCO2)NCc1ccc(-c2ccccc2F)cc1 records % inhibition of asexual blood stage proliferation of 20% or higher.
0

Test whether the molecule OCCC#Cc1nc(-c2ccc(F)cc2)c(-c2ccncc2)n1CCCc1ccccc1 records % inhibition of asexual blood stage proliferation of 20% or higher.
0

Test whether the molecule CN(C)CCCOc1ccc(-c2ccc3ncc4c(c3c2)n(C2CCOCC2)c(=O)n4C)cn1 records % inhibition of asexual blood stage proliferation of 20% or higher.
1

Test whether the molecule NC(=O)[C@@H]1CC[C@@H]2CN1C(=O)N2OS(=O)(=O)O records % inhibition of asexual blood stage proliferation of 20% or higher.
1

Test whether the molecule Nc1nc(C(F)(F)F)cc2c1[nH]c(=O)n2Cc1ccccc1 records % inhibition of asexual blood stage proliferation of 20% or higher.
0

Test whether the molecule Clc1ccc(COC(Cn2ccnc2)c2ccc(Cl)cc2Cl)c(Cl)c1 (stereo unspecified) records % inhibition of asexual blood stage proliferation of 20% or higher.
1
